# target system: E. coli CsgA (Escherichia coli)
# Construct: made in house; host or cells: E. coli NEB 3016 slyD::kan, pET11d
# Sequence (P28307 23-151): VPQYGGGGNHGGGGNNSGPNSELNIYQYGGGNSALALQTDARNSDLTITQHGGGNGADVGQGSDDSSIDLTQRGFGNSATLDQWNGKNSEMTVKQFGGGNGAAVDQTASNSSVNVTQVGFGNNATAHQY
# assay: In vitro ThioflavinT assay of CsgA aggregation (CsgA ThT Assay)
# Format: biochemical
# test context: read-out: CsgA ThT Assay (10 μM CsgA) % Control AUC at 1005 minutes, 100 μM, mean AUC as % of DMSO control; CsgA 10 μM, black plates; compound 100 μM; 1005 minutes
Binary label based on remaining activity at 100 µM with cut-off 20%: below gives TRUE, not below gives FALSE.

>  <molecule>
Nc1c(Cc2cccc3ccccc23)c(-c2cccc(C(F)(F)F)c2)c2n(c1=O)C(C(=O)O)CN(CCCCO)S2(=O)=O (stereo not drawn) [Compound 099]

>  <discrete label>
FALSE

$$$$
>  <molecule>
CCCN1CC(C(=O)O)n2c(c(-c3cccc(C(F)(F)F)c3)c(Cc3cccc4ccccc34)c(N)c2=O)S1(=O)=O (stereo not drawn) [Compound 089]

>  <discrete label>
FALSE

$$$$
>  <molecule>
CCc1c(Cc2cccc3ccccc23)c(-c2cccc(C(F)(F)F)c2)c2n(c1=O)C(C(=O)O)CN(CCCCO)S2(=O)=O (stereo not drawn) [Compound 113]

>  <discrete label>
FALSE

$$$$
>  <molecule>
CCN1CC(C(=O)O)n2c(c(-c3cccc(C(F)(F)F)c3)c(Cc3cccc4ccccc34)cc2=O)S1(=O)=O (racemic) [Compound 015]

>  <discrete label>
FALSE

$$$$
>  <molecule>
O=C(O)C1CN(C[C@H](O)CO)S(=O)(=O)c2c(-c3cccc(C(F)(F)F)c3)c(Cc3cccc4ccccc34)cc(=O)n21 (stereo partly drawn) [Compound 065a]

>  <discrete label>
TRUE

$$$$

Exam item: Quick check: remaining activity at 100 µM of O=C(O)C1CN(CCCO)S(=O)(=O)c2c(-c3cccc(C(F)(F)F)c3)c(Cc3cccc4ccccc34)c(NC3CCCC3)c(=O)n21 (stereo not drawn) [Compound 120] under 20%?
Marked response: TRUE
